# Target Under Test: T1, alphaS1-casein, P02662
# T1 chain: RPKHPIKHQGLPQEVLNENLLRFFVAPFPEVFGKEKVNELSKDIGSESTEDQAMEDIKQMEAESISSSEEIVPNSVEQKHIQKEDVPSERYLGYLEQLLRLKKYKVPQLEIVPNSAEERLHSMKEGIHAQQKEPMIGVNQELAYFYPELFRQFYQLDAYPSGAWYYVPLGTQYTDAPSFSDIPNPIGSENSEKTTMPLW
Measure Name: Degradation of intact alphaS1-casein (% of reference A) (% of reference A)
One number for each entry.

Please look up its Degradation of intact alphaS1-casein (% of reference A) (% of reference A): bovine chymosin (CHY-MAX Plus from Chr. Hansen A/S) (protein) GEVASVPLTNYLDSQYFGKIYLGTPPQEFTVLFDTGSSDFWVPSIYCKSNACKNHQRFDPRKSSTFQNLGKPLSIHYGTGSMQGILGYDTVTVSNIVDIQQTVGLSTQEPGDVFTYAEFDGILGMAYPSLASEYSIPVFDNMMNRHLVAQDLFSVYMDRNGQESMLTLGAIDPSYYTGSLHWVPVTVQQYWQFTVDSVTISGVVVACEGGCQAILDTGTSKLVGPSSDILNIQQAIGATQNQYGEFDIDCDNLSYMPTVVFEINGKMYPLTPSAYTSQDQGFCTSGFQSENHSQKWILGDVFIREYYSVFDRANNLVGLAKAI
100

Where do these numbers come from? They come from patent US20260000087.
